- TESTED_SYSTEM: Thromboxane receptor (TP) (Homo sapiens)
- Sequence (P21731 1-343): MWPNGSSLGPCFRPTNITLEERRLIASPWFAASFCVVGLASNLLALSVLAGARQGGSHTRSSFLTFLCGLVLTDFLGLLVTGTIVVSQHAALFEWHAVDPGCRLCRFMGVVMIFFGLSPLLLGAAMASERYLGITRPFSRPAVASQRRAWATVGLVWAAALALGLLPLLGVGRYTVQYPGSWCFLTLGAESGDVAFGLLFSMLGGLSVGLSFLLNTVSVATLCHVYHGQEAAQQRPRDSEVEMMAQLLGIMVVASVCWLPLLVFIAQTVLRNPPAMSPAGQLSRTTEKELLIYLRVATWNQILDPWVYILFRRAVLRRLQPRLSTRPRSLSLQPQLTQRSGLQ
- ASSAY_NOTES: TP receptor radioligand binding ([3H] SQ-29548)
- PARTICULARS: Human recombinant HEK-293 cells; 5 nM [3H] SQ-29548
pKi: −log10 of the molar value.
READOUT: pKi

[[record]]
compound = "O=C(O)CC/C=C\\C[C@@H]1COC(c2ccccc2-c2ccccc2)O[C@@H]1c1ccccc1O (some centres unmarked) [Compound 10]"
tested_system = "Thromboxane receptor (TP) (Homo sapiens)"
readout = "pKi"
measured_number = 8.14

[[record]]
compound = "COc1ccc(Oc2ccccc2C2OC[C@@H](C/C=C\\CCC(=O)O)[C@@H](c3ccccc3O)O2)cc1 (some centres unmarked) [Compound 1]"
tested_system = "Thromboxane receptor (TP) (Homo sapiens)"
readout = "pKi"
measured_number = 9.09


====

- TESTED_SYSTEM: UniProtKB P21731
- Sequence (P21731 1-343): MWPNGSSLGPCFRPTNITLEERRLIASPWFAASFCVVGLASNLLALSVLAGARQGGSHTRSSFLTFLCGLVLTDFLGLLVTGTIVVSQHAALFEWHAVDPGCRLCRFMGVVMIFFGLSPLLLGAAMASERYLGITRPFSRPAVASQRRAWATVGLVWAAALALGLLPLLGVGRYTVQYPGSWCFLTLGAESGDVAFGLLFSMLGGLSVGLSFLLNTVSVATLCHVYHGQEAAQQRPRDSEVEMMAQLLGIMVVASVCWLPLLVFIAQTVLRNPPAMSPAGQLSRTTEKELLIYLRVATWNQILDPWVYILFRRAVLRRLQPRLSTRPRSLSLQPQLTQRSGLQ
- ASSAY_NOTES: TP receptor radioligand binding ([3H] SQ-29548)
- PARTICULARS: Human recombinant HEK-293 cells; 5 nM [3H] SQ-29548
READOUT: IC50 (nM)

[[record]]
compound = "O=C(O)CC/C=C\\C[C@@H]1COC(c2ccccc2-c2ccccc2)O[C@@H]1c1ccccc1O (some centres unmarked)"
unit = "nM"
measured_number = 11

[[record]]
compound = "COc1ccc(Oc2ccccc2C2OC[C@@H](C/C=C\\CCC(=O)O)[C@@H](c3ccccc3O)O2)cc1 (some centres unmarked)"
unit = "nM"
measured_number = 1.25


====

- TESTED_SYSTEM: Thromboxane receptor (TP) (Homo sapiens, UniProt P21731)
- Construct: expressed in transfected cells; host or cells: HEK-293
- ASSAY_NOTES: TP receptor radioligand binding ([3H] SQ-29548)
- PARTICULARS: 10 μM; Human recombinant HEK-293 cells
- Protocol: The compounds were tested on radioligand binding assays for thromboxane receptor binding essentially as described by Hedberg et al. (1988) J. Pharmacol. Exp. Ther. 245:786-792 and Saussy et al. (1986) J. Biol. Chem. 261: 3025-3029 according to the following: TP Receptor Radioligand Binding Studies: Human recombinant HEK-293 cells, Incubation Time, Temp: 30 minutes at 25° C. Incubation Buffer: 50 mM Tris-HCl, pH 7.4, 154 mM NaCl Non-Specific Ligand: 1 μM SQ-29548 […]
Recorded inhibition at 10 µM by entry
READOUT: inhibition at 10 µM (%)

[[record]]
compound = "COc1ccc(Oc2ccccc2C2OC[C@@H](C/C=C\\CCC(=O)O)[C@@H](c3ccccc3O)O2)cc1 (some centres unmarked) [Compound 1]"
measured_number = 101

[[record]]
compound = "COc1ccccc1C1OC(c2ccccc2Cl)OCC1C/C=C\\CCC(=O)O (centres unmarked) [Compound D]"
measured_number = 98

[[record]]
compound = "O=C(O)CC/C=C\\C[C@@H]1COC(c2ccccc2Oc2ccc(F)cc2)O[C@@H]1c1ccccc1O (some centres unmarked) [Compound 4]"
measured_number = 100

[[record]]
compound = "O=C(O)CC/C=C\\C[C@@H]1COC(c2ccccc2-c2ccccc2)O[C@@H]1c1ccccc1O (some centres unmarked) [Compound 10]"
measured_number = 102

[[record]]
compound = "O=C(O)CC/C=C\\CC1COC(c2ccccc2Cl)OC1c1ccccc1O (racemic) [Compound A]"
measured_number = 105


Entry source: patent US20120142766A1
